Hello, the source for this data is the supplement of paper PMC5908809, in case you need it.

System: normal primary NK cells, pool 2 (3 donors) (IL-2 2.5 ng/mL);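 further: normalised to DMSO-only wells as negative and benzethonium chloride as positive control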
EXPERIMENT: percent inhibition of viability; higher = more inhibition
RUN CONDITIONS: 72 h; 0.1 nM
ENDPOINT NAME: percent inhibition of viability

The cases that follow already have their percent inhibition of viability on record.
{"MOLECULE": "Cc1csc(-c2nnc(Nc3ccc(Oc4ncccc4-c4ccnc(N)n4)cc3)c3ccccc23)c1 [AMG-900] (max concentration tested 1000 nM)", "percent inhibition of viability": "-8.07%"}
{"MOLECULE": "O=C1NC(=O)[C@@H](c2cn3c4c(cccc24)CCC3)[C@@H]1c1c[nH]c2ccccc12 [Tivantinib] (max concentration tested 1000 nM)", "percent inhibition of viability": "-7.65%"}
{"MOLECULE": "NC(=O)Nc1cc(-c2cccc(F)c2)sc1C(=O)N[C@H]1CCCNC1 [AZD7762] (max concentration tested 1000 nM)", "percent inhibition of viability": "-6.25%"}
{"MOLECULE": "CCN(CC)CCNC(=O)c1c(C)[nH]c(/C=C2\\C(=O)Nc3ccc(F)cc32)c1C [Sunitinib] (max concentration tested 1000 nM)", "percent inhibition of viability": "-6.76%"}

Turning now to a further record.
Dear colleague, I am looking for the recorded percent inhibition of viability of the following molecule: CC[C@]1(O)C[C@H]2CN(CCc3c([nH]c4ccccc34)[C@@](C(=O)OC)(c3cc4c(cc3OC)N(C=O)[C@H]3[C@@](O)(C(=O)OC)[C@H](OC(C)=O)[C@]5(CC)C=CCN6CC[C@]43[C@@H]65)C2)C1 [Vincristine] (max concentration tested 1000 nM)
-7.02%
